All values here come from paper PMC12467382.

- Tested on: PIV5-GFP
- MEASUREMENT_NOTES: PIV5-GFP viral GFP expression in Hs27 cells by flow cytometry
- Type: cell-based, parainfluenza virus 5
- REPORTED_CONDITIONS: 10 µM; Hs27 cells infected with PIV5-GFP
MEASURE: % GFP relative to DMSO treated (10 µM) (%)
Reply with just the number (in %).

## Task API: value(readout= % GFP relative to DMSO treated (10 µM), system= PIV5-GFP, query= CCOc1ccc(Br)cc1/C=C/C(=O)c1c(O)cccc1OCc1ccccc1 [Chalcone 8o] )
## Result 14.6

## Task API: value(readout= % GFP relative to DMSO treated (10 µM), system= PIV5-GFP, query= CCOc1ccc(Br)cc1/C=C/C(=O)c1c(O)cccc1OCc1ccc(-c2ccccc2)cc1 [Chalcone 8v] )
## Result 63.3

## Task API: value(readout= % GFP relative to DMSO treated (10 µM), system= PIV5-GFP, query= CCOc1ccc(Br)cc1/C=C/C(=O)c1c(O)cccc1OCCc1ccccc1 [Chalcone 8t] )
## Result 84.9

## Task API: value(readout= % GFP relative to DMSO treated (10 µM), system= PIV5-GFP, query= CCOc1ccc(Br)cc1/C=C/C(=O)c1c(O)cccc1OCCC(C)C [Chalcone 8r] )
## Result 108.7
